Can you tell me inhibition for the items I'm about to list?
# assaySystem: L-lactate dehydrogenase (Plasmodium falciparum (isolate CDC / Honduras)) (UniProt Q27743)
# Sequence (Q27743 whole entry, looked up): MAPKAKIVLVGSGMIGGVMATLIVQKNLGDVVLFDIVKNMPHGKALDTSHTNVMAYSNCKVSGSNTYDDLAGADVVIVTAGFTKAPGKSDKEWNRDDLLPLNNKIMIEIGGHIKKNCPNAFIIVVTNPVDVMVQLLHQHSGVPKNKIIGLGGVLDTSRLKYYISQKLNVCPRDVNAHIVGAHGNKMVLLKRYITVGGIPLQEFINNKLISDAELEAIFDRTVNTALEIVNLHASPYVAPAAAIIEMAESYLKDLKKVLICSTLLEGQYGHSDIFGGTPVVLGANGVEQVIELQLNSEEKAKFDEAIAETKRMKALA
# testDetails: PfLDH activity inhibition – cell lysate, 3D7 strain, counter-screen for P. falciparum growth inhibition project (AID 2304);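 note: 0% = vehicle and 100% = reference inhibitor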
# experimentalParameters: P. falciparum 3D7 crude extract, LDH APAD/NBT absorbance; at 2 µM; active compounds read high
The response must be a number in % with no trailing unit.

[ask] Which measured inhibition belongs to COCC(C)n1c(SC(C)C(=O)Nc2cc([N+](=O)[O-])ccc2Cl)nc2ccccc2c1=O (centres undefined) , tested on L-lactate dehydrogenase (Plasmodium falciparum (isolate CDC / Honduras)) (UniProt Q27743)?
[reply] 2

[ask] Form entry - test system: L-lactate dehydrogenase (Plasmodium falciparum (isolate CDC / Honduras)) (UniProt Q27743); read-out: inhibition; compound: CS(=O)(=O)CCNCc1cccc(-c2cc3c(Nc4ccc(OCc5cccc(F)c5)c(Cl)c4)ncnc3s2)c1
[reply] 1

[ask] Please tell me: inhibition of Cc1c(-c2cccc(NC(=O)C(C)(C)Oc3ccc(Cl)cc3)c2)nc2ncccn12 , system L-lactate dehydrogenase (Plasmodium falciparum (isolate CDC / Honduras)) (UniProt Q27743)?
[reply] -3

[ask] Which measured inhibition belongs to Cc1cc(NN=Cc2ccccc2[N+](=O)[O-])c2ccc(F)cc2n1 , tested on L-lactate dehydrogenase (Plasmodium falciparum (isolate CDC / Honduras)) (UniProt Q27743)?
[reply] -4

[ask] What value of inhibition on L-lactate dehydrogenase (Plasmodium falciparum (isolate CDC / Honduras)) (UniProt Q27743) does Cc1cc(OCCCN2CCC(NS(=O)(=O)c3ccc(Cl)c(Cl)c3)CC2)c2ccccc2n1 have?
[reply] 1

[ask] What measured inhibition is associated with Cc1cc(C(=O)Nc2ccc3c(c2)CCN3C2CCN(Cc3ccc4nsnc4c3)C2)no1 (centres undefined) on L-lactate dehydrogenase (Plasmodium falciparum (isolate CDC / Honduras)) (UniProt Q27743)?
[reply] -1

[ask] Give L-lactate dehydrogenase (Plasmodium falciparum (isolate CDC / Honduras)) (UniProt Q27743) inhibition for CN1CCCC1CCNCc1cccc(-c2cnc(N3CCCC(C)(C)C3)nc2)c1 (centres undefined)
[reply] 5

[ask] Tell me reported inhibition for OCC1CCN(Cc2ccc(-c3ccc(-c4nc5ccc(C(F)(F)F)cc5[nH]4)s3)cc2)CC1 , tested with L-lactate dehydrogenase (Plasmodium falciparum (isolate CDC / Honduras)) (UniProt Q27743).
[reply] -2

[ask] API: value(readout=inhibition, system=L-lactate dehydrogenase (Plasmodium falciparum (isolate CDC / Honduras)) (UniProt Q27743)) for record N#Cc1ccc(N(CCNS(=O)(=O)c2cc(Br)c(Cl)s2)Cc2ccccc2C(F)(F)F)cc1C(F)(F)F
[reply] -1

---

# testDetails: human hepatoma cell viability loss – ATP luminescence, cytotoxicity control for P. falciparum antimalarial project, primary screen (AID 2303);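 note: 0% = DMSO wells and 100% = digitonin-killed cells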
# experimentalParameters: HepG2 viability, 24-48 h, at 10 µM, active compounds read high
Field: inhibition. Provide a value for each of the molecules that follow.
Numeric only. Scale: %

[ask] I have this molecule here, CN1CCN(c2ccnc3cc4c(cc23)N(Cc2ccccc2)CC4)CC1 , and I need its recorded inhibition.
[reply] -2

[ask] Form field: reported inhibition of OCC1CCN(Cc2ccc(-c3ccc(-c4nc5ccc(C(F)(F)F)cc5[nH]4)s3)cc2)CC1
[reply] 35

[ask] Quick one: inhibition for Cc1[nH]c(C)c(-c2ccc(OCc3ccc(F)cc3)cc2)c(=O)c1Br ?
[reply] 16

[ask] Any idea what its inhibition is? The molecule is COc1nc(NCC(C)C)nc(Oc2ccc(=O)n(Cc3ccccc3)n2)n1
[reply] 1

[ask] Fill in the blank: the reported inhibition of Cc1ccc(NC(=O)Nc2ccc(Cn3ncc(N4CCCNCC4)c(Cl)c3=O)cc2)cc1 is ____.
[reply] 35
